# key: entry, value: IC50, endogenous hLTBP assay (CAGA12 luciferase)
# target: LTBP-proTGFβ1: transfected human proTGFβ1 presented by endogenous LTBP1/3 of LN229 cells (human)
# Sequence (P01137 30-390): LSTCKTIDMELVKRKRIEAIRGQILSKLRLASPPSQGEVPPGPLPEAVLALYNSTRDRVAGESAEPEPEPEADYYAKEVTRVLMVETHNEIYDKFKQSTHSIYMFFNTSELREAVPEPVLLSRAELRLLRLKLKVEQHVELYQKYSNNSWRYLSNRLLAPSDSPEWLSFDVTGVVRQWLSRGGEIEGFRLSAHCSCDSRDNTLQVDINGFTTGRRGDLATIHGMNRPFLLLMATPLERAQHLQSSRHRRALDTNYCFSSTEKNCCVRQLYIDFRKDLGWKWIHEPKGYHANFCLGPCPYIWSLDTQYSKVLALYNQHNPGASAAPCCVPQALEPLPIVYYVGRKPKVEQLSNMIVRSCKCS
# assay.notes: cell-based or functional assay
Just the number please, in nM, no unit attached.

SR-AB42 (antibody, IgG1, V domains shown, Cycle 3, lineage SR-AB23) VH: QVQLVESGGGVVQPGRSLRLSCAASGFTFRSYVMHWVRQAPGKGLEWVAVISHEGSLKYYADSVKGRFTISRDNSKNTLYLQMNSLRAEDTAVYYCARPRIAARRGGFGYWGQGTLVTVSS VL: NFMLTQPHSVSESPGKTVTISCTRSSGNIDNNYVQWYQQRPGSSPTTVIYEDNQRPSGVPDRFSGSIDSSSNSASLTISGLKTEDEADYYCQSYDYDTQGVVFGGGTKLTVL : 1.43
SR-AB43 (antibody, IgG1, V domains shown, Cycle 3, lineage SR-AB23) VH: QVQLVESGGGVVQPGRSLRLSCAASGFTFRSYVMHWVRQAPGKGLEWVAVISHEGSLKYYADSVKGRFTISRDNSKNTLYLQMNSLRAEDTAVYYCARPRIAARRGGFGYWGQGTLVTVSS VL: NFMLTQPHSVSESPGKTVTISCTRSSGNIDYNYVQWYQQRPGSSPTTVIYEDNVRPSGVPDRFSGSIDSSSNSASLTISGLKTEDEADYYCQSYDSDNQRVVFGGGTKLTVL : 1.76
SR-AB41 (antibody, IgG1, V domains shown, Cycle 3, lineage SR-AB23) VH: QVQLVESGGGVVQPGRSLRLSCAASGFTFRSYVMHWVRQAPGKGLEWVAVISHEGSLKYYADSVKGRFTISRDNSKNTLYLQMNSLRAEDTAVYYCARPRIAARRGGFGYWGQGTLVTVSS VL: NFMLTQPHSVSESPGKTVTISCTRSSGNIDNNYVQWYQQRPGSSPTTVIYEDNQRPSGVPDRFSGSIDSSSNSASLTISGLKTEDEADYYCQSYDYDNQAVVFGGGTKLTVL : 1.54

Lab book: IC50, endogenous hLTBP assay (CAGA12 luciferase) of SR-AB45 (antibody, IgG1, V domains shown, Cycle 3, lineage SR-AB23) VH: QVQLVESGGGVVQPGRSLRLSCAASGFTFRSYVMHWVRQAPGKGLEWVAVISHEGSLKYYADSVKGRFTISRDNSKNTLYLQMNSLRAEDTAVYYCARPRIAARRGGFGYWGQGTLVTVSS VL: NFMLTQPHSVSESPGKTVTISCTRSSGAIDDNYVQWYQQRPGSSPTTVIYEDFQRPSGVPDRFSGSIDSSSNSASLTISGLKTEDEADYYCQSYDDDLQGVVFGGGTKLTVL noted as 2.25

Notebook: SR-AB23 (antibody, IgG1, V domains shown, Cycle 2, lineage SR-AB14) VH: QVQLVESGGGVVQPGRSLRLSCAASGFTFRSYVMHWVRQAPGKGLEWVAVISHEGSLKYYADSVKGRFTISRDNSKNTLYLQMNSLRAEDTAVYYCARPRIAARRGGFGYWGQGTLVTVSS VL: NFMLTQPHSVSESPGKTVTISCTRSSGNIDNNYVQWYQQRPGSSPTTVIYEDNQRPSGVPDRFSGSIDSSSNSASLTISGLKTEDEADYYCQSYDSDNQGVVFGGGTKLTVL , IC50, endogenous hLTBP assay (CAGA12 luciferase) read as 6.04

For reference, reported IC50, endogenous hLTBP assay (CAGA12 luciferase) for SR-AB40 (antibody, IgG1, V domains shown, Cycle 3, lineage SR-AB23) VH: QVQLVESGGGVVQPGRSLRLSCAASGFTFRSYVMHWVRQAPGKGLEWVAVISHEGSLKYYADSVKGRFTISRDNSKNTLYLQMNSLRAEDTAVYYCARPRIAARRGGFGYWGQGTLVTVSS VL: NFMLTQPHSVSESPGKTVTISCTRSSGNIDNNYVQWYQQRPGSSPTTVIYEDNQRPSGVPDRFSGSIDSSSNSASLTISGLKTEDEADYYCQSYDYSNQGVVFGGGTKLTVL stands at 2.1

Note to self: IC50, endogenous hLTBP assay (CAGA12 luciferase) recorded for SR-AB10 (antibody, IgG1, V domains shown, Parent antibody) VH: QLQLQESGGGVVQPGRSLRLSCAASGFTFNNYPIHWVRQAPGKGLEWVAVMSYDGINKYYADSVKGRFTISRDNSKNTLYLQMNSLRAEDTAVYYCARPRIAARRGGFDYWGQGTLVTVSS VL: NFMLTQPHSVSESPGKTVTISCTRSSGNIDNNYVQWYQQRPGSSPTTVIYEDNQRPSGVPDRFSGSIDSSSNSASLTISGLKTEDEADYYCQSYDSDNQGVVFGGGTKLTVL was 3.64

Entry SR-AB44 (antibody, IgG1, V domains shown, Cycle 3, lineage SR-AB23) VH: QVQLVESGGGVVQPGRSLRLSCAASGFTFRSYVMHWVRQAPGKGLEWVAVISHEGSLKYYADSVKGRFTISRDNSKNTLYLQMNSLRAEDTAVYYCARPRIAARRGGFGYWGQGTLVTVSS VL: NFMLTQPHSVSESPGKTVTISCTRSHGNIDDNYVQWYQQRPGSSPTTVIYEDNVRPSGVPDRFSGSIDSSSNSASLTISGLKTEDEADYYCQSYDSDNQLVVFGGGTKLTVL — recorded IC50, endogenous hLTBP assay (CAGA12 luciferase) = 1.51
